Target: T1, recombinant human 41BB-mFc fusion protein (human, UniProt Q07011 24-186)
T1 construct: A fusion protein containing 41BB operably linked to a mouse Fc region
Assay: ELISA, recombinant 41BB-mFc immobilized on Medisorp plate
property label: binding result

Some entries whose results are on file:
binder	binding result
4E01 (VHH, also called 4E1) VHH: QVQLQQSGGGLVQAGDSLRLSCAASGWAFGNYGMAWFRRAPGKEREFIGRLAWNGGSTDYVDSVKGRFTISRDNPKNTLYLQMNNLKPDDTAVYYCARQRSYSRYDIRTPQTYDYWGQGTQVT	binds
4H04 (VHH, also called 4H4) VHH: QVQLQESGGGLVQAGDSLRLSCAASGWAFDNYGMAWFRQAPGKEREFIGRLAWNGGSTDYADSVKGRFTISRDNPKNTLYLQMNNLKPEDTAVYYCARQRSYSGYGIRTPQTYDYWGQGTQVT	binds
1H1 (VHH, also called 41BB-targeting single domain antibody 1H1) VHH: QVQLVQSGGGLVQPGGSLRLSCAASGFTFDDHAMSWVRQAPGKGLEWVSAISWNGHYTYYAESMKGRFAISRDNAKNTLYLQMNSLKSEDTAVYYCVKGWRGSYTRDRPFASWGQGTQV	binds
1H4 (VHH, also called 41BB-targeting single domain antibody 1H4) VHH: QVQLVQSGGGLVQPGGSLRLSCVVSGFTFRSYAMSWVRQAPGKGLEWVSTINSGESSTKYADSVKGRFTISRDDAKNTLYLQMSDLKPEDTAVYFCAKHRGWSTVDDINYWGKGTQV	binds
4F5 (VHH, also called 4F05) VHH: QVQLVQSGGGLVQPGGSLRLSCAASGWAFDNYGMAWFRQAPGKEREFIGRLAWNGGSTDYADSVKGRFTISRDNPKNTLYLQMNSLKPEDTAVYYCARQRSYSRYGIRAPQTYDYWGQGTQVT	binds

Task item: Would you kindly share the measured binding result for 1G3 (VHH, also called 41BB-targeting single domain antibody 1G3) VHH: QVQLVQSGGGLVQPGGSLRLSCAASGFTFSSYAMSWVRQAPGKGLEWVSAIPAGDGSTKYADSVKGRFTISRDNAKNTVYLQMDSLKPEDTAVYFCAKSRGWSTVDDMDYWGKGTQV ?
Reply: binds

Task item: Ok, now 1H8 (VHH, also called 41BB-targeting single domain antibody 1H8) VHH: EVQLVQSGGGLVQPGGSLRLSCAASGFTFSSYYMSWVRQAPGKGLEWVSTISTNTGGGSTYYAYADSVKGRFTISRDNAKNTLYLEMNSLKPEDTAQYYCVRTRWEGVYDYWGLGTQV
Reply: binds

meta.source: patent US20170198050A1
